The origin of these recorded values is patent US20210388087A1.

Item-by-item account of fold change of affinity
# study.target: T1, Human CD137 ECD (human)
# T1 construct: also called 4-1BB
# T1 sequence (chain, as listed by the source limits assumed): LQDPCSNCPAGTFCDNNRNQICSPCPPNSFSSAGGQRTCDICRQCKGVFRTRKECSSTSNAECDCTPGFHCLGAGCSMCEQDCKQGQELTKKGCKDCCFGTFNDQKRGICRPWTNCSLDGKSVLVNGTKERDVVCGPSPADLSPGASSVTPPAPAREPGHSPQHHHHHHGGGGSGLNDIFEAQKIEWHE
# procedure.details: SPR, vs parent H183/L072
Value expressed in fold; do not type the unit.

Worked examples, 4 binders total:
dBBDu183H P100eH / dBBDu072L (antibody, name in Kabat numbering, V domains shown, as m1, one VH change) VH: QVQLVESGGGLVQPGRSLRLSCAASGFTFSNAWMHWVRQAPGKGLEWVAQIKDKGNAYAAYYAPSVKGRFTISRDDSKNSIYLQMNSLKTEDTAVYYCHYVHYASASTVLHAFGVDAWGQGTTVTVSS VL: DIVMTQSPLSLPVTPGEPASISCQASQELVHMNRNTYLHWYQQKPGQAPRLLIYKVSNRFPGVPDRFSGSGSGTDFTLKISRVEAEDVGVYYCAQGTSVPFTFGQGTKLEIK: 0.1
dBBDu183H P61G / dBBDu072L (antibody, name in Kabat numbering, V domains shown, as m1, one VH change) VH: QVQLVESGGGLVQPGRSLRLSCAASGFTFSNAWMHWVRQAPGKGLEWVAQIKDKGNAYAAYYAGSVKGRFTISRDDSKNSIYLQMNSLKTEDTAVYYCHYVHYASASTVLPAFGVDAWGQGTTVTVSS VL: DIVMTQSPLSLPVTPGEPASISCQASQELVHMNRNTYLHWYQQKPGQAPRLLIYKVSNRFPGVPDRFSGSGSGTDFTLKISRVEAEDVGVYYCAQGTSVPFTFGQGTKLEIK: 1
dBBDu183H S99Y / dBBDu072L (antibody, name in Kabat numbering, V domains shown, as m1, one VH change) VH: QVQLVESGGGLVQPGRSLRLSCAASGFTFSNAWMHWVRQAPGKGLEWVAQIKDKGNAYAAYYAPSVKGRFTISRDDSKNSIYLQMNSLKTEDTAVYYCHYVHYAYASTVLPAFGVDAWGQGTTVTVSS VL: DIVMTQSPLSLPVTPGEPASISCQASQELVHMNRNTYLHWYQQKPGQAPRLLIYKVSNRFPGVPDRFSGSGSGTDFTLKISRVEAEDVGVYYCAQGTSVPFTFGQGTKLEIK: 0.5
dBBDu183H S62D / dBBDu072L (antibody, name in Kabat numbering, V domains shown, as m1, one VH change) VH: QVQLVESGGGLVQPGRSLRLSCAASGFTFSNAWMHWVRQAPGKGLEWVAQIKDKGNAYAAYYAPDVKGRFTISRDDSKNSIYLQMNSLKTEDTAVYYCHYVHYASASTVLPAFGVDAWGQGTTVTVSS VL: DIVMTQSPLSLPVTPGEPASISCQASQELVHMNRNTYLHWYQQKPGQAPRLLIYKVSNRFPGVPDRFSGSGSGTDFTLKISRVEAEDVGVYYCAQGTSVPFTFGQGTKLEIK: 0.9

Now consider the entry below.
Prompt: Need fold change of affinity of dBBDu183H H96W / dBBDu072L (antibody, name in Kabat numbering, V domains shown, as m1, one VH change) VH: QVQLVESGGGLVQPGRSLRLSCAASGFTFSNAWMHWVRQAPGKGLEWVAQIKDKGNAYAAYYAPSVKGRFTISRDDSKNSIYLQMNSLKTEDTAVYYCHYVWYASASTVLPAFGVDAWGQGTTVTVSS VL: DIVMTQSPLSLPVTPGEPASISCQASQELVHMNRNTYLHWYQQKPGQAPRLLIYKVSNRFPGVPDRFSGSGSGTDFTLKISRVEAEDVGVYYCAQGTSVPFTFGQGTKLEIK , thanks.
Completion: 1.6
